Each recorded value in this set is attributed to PubChem BioAssay.

Tested on: Neuregulin-1 EGF-like domain
methodSummary: small molecules binding NRG1 EGF domain – biochemical, small-molecule microarray, 635 nm fluorescence, primary screen (AID 1081);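 further: binding of the protein to compounds printed on small-molecule microarray slides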
conditionNotes: higher = more signal
measurementName: composite z-score

// known answers, use as guide
molecule	value
CC(C)CCC[C@@H](C)[C@H]1CC[C@@]2(C)C3=C(CC[C@]12C)[C@@]1(C)CC[C@H](OC(=O)c2ccc(N)cc2)C(C)(C)C1CC3 (some centres undefined)	0.649
COCCOC(=O)N1C(=O)[C@@]2(c3cc(C#CCC(C(=O)OC)C(=O)OC)ccc31)[C@H](c1ccc(OCCO)cc1)N1[C@H](c3ccccc3)[C@H](c3ccccc3)OC(=O)[C@H]1[C@@H]2C(N)=O	1.22
COC(=O)[C@@]1(Cc2ccccc2)[C@H]2c3cc(C(=O)N(C)C)n(Cc4ccc(O)c(OC)c4)c3C[C@H]2CN1C(=O)c1ccccc1	1.24
O=C(Nc1cc(Br)ccc1C(=O)NCc1cccc(O)c1)c1ccccc1	1.15
NC(=O)NCC#Cc1ccc2c(c1)[C@]1(C(=O)N2)[C@H](c2ccc(O)cc2)N2[C@H](c3ccccc3)[C@H](c3ccccc3)OC(=O)[C@H]2[C@@H]1C(N)=O	0.266
COCCCNC(=O)[C@@H]1c2ccccc2C(=O)N(Cc2cc(F)cc(C(F)(F)F)c2)[C@H]1c1ccc(CO)cc1	0.716

Tested on Neuregulin-1 EGF-like domain: CN(C)CCCN1C(=O)[C@@]2(Cc3ccccc31)c1ccccc1C(=O)N(Cc1ccccc1)[C@H]2c1ccc(CO)cc1 . Observed composite z-score: -0.226

Tested on Neuregulin-1 EGF-like domain: C[C@]12C(=O)N(CCCO)[C@@H]3C(=O)N(c4ccc(Cl)cc4)CC=CC31O[C@@H]1/C=C\CCCOC(=O)C12 (some centres undefined) . Observed composite z-score: 1.13

Tested on Neuregulin-1 EGF-like domain: C[N+](C)(C)CCCCCCNC(=O)[C@@H]1C[C@@H]2C(=O)NCC(=O)N2[C@@H]1c1ccc(O)cc1 . Observed composite z-score: 1.43

----------
methodSummary: compound effects on hepatocellular carcinoma cell viability – HepG2, calcein-AM fluorescence, 48 h, basal, profiling panel (AID 1164); further: test concentration not given here
conditionNotes: higher = more signal
z-score below 0.5 gives label 0; z-score at or above it gives label 1.

Query: Determine whether measured z-score meets or exceeds 0.5 for COCCCNC(=O)[C@@H]1c2ccccc2C(=O)N(Cc2cc(F)cc(C(F)(F)F)c2)[C@H]1c1ccc(CO)cc1
Result: label 0

Query: Determine whether measured z-score meets or exceeds 0.5 for O=C1c2ccccc2[C@](Cc2ccccc2I)(C(=O)NC2CC2)[C@H](c2ccc(CO)cc2)N1Cc1ccccc1Cl
Result: label 0

Query: Determine whether measured z-score meets or exceeds 0.5 for COCC1=C([C@H](O)CCc2ccccc2)[C@H](CO)[C@@H]2C(=O)N(C)C(=O)[C@@H]2C1
Result: label 1

Query: Determine whether measured z-score meets or exceeds 0.5 for C[N+](C)(C)CCCC[C@@H]1NC(=O)[C@H]2C[C@@H](C(=O)NCCCCCCN)[C@@H](c3cccc(OCCO)c3)N2C1=O
Result: label 0

Query: Determine whether measured z-score meets or exceeds 0.5 for COc1cc(C(O)C2C=CC3C(=O)N(C)C(=O)C3N2NC(=O)OC(C)(C)C)cc(OC)c1OC (centres undefined)
Result: label 0

Query: Determine whether measured z-score meets or exceeds 0.5 for CCCCCCCCCCC(O)C1C=CC2C(=O)NC(=O)C2N1Nc1ccccn1 (centres undefined)
Result: label 0

Query: Determine whether measured z-score meets or exceeds 0.5 for [N-]=[N+]=NCc1ccccc1[C@H]1OC(c2ccc(OCCCO)cc2)=N[C@@]1(Cc1ccccc1N=[N+]=[N-])C(=O)NCCN1CCOCC1
Result: label 0

Query: Determine whether measured z-score meets or exceeds 0.5 for C=CCOC(=O)[C@@H]1[C@H]2C(=O)O[C@H](c3ccccc3)[C@H](c3ccccc3)N2[C@H](c2ccc(OCCOC(=O)[C@H]3C[C@H]4C(=O)N[C@@H](Cc5ccccc5)C(=O)N4[C@H]3c3cccc(OCCO)c3)cc2)[C@@]12C(=O)Nc1ccc(I)cc12
Result: label 1

Query: Determine whether measured z-score meets or exceeds 0.5 for C=CC[C@]1(C(=O)N2CCOCC2)N=C(c2ccc(OCCCO)cc2)O[C@H]1c1ccccc1CN=[N+]=[N-]
Result: label 1
